tested on: Human tumour cells (cell line panel); test: Proliferation assay: cell line panel (crystal violet, 4 days); type: cell-based; details: HCC1937, breast cancer, triple-negative, 5000 cells/well, read-out: Result Category, IC50 (mean)
pIC50: −log10 of the molar value.
attribute-measured: pIC50

| compound-smiles | meas-value |
| --- | --- |
| Brc1cnn2c(NCc3nc4ccccc4[nH]3)nc(N3CCOCC3)nc12 | ≤ 7.00 |

----------
Known pIC50 of a selection of molecules
target: CDK12/CycK (Homo sapiens, UniProt Q9NYV4); assay: CDK12/CycK high ATP kinase assay (TR-FRET, 2 mM ATP); conditions: 2 mM ATP (high ATP); median; read-out: CDK12/CyclinK, 2 mM ATP (high ATP), IC50-[mol/l] (median)
Sequence (Q9NYV4 with tags, fused parts or gaps): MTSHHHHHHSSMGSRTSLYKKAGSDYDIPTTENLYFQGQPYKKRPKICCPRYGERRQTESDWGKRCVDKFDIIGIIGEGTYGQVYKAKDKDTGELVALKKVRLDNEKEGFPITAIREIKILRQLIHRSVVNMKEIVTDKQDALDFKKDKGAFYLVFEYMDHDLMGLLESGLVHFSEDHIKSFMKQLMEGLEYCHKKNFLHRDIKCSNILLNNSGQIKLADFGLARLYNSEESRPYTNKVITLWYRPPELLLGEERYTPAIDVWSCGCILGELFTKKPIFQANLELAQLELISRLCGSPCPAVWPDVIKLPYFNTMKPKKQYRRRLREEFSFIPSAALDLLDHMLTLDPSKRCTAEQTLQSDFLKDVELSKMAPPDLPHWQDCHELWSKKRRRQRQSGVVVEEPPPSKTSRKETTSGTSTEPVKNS
Sequence (O75909 1-300 partner limits assumed): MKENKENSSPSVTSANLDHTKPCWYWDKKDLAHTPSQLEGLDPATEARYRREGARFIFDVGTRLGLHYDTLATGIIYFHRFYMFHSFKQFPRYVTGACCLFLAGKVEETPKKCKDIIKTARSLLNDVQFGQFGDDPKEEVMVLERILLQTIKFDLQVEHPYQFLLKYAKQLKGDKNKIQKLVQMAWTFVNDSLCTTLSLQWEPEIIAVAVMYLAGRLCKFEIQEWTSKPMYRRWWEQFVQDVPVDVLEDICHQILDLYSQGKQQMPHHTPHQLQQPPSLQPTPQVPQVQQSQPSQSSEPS
pIC50: −log10 of the molar value.

| molecule | modifier | pIC50 |
| --- | --- | --- |
| Fc1cccc(-c2cnc(CNc3nc(N4CCOCC4)nc4c(Br)cnn34)[nH]2)c1 [Example 79] | = | 6.25 |
| COc1ccc2[nH]c(CNc3nc(N4C[C@@H](C)O[C@@H](C)C4)nc4c(Br)cnn34)nc2c1 [Example 124] | = | 6.31 |
| C[C@H]1CN(c2nc(NCc3nnc(-c4ccccc4)[nH]3)n3ncc(Br)c3n2)CCN1C.O=CO [Example 122, formate] | < | 4.70 |
| Brc1cnn2c(NCc3nc4ccccc4[nH]3)nc(N3CCN4CCC3C4)nc12 (centres unmarked) [Example 350] | = | 5.11 |
| COCCNc1nc(NCc2nc3ccccc3[nH]2)n2ncc(Br)c2n1 [Example 230] | < | 4.70 |
| Fc1ccc2[nH]c(CNc3nc(N4CCOCC4)nc4c(C5CCOCC5)cnn34)nc2c1F [Example 276] | < | 4.70 |
| Cc1ccc2[nH]c(CNc3nc(N4CCN(C)CC4)nc4c(Br)cnn34)nc2c1 [Example 158] | = | 5.35 |
| FC(F)(F)CN1CCN(c2nc(NCc3nc4ccccc4[nH]3)n3ncc(Br)c3n2)CC1 [Example 139] | = | 4.82 |
| FC(F)(F)c1cnn2c(NCc3nc4cc(Cl)ccc4[nH]3)nc(N3CCOCC3)nc12 [Example 275] | = | 7.01 |
| Fc1cc(-c2nnc(CNc3nc(N4CCOCC4)nc4c(Br)cnn34)[nH]2)cc(F)c1F [Example 100] | = | 5.91 |
| CN1CCN(c2nc(NCc3nc4c(F)c(Cl)ccc4[nH]3)n3ncc(Br)c3n2)CC1 [Example 373] | = | 5.51 |
| CN1CCN(c2nc(NCc3nc4cc(Cl)ccc4[nH]3)n3ncc(Br)c3n2)CC1 [Example 163] | < | 5.24 |
| C[C@@H]1CN(c2nc(NCc3nc4ccccc4[nH]3)n3ncc(Br)c3n2)CCN1C [Example 135] | = | 4.84 |
| CC(C)c1cnn2c(NCc3nc4ccccc4[nH]3)nc(N3CCCOCC3)nc12 [Example 8] | < | 4.70 |
| Cc1cc2nc(CNc3nc(N(C)CC(C)(C)O)nc4c(Br)cnn34)[nH]c2cc1C [Example 343] | = | 6.73 |
| C[C@@H]1CN(c2nc(NCc3nc4ccccc4[nH]3)n3ncc(Br)c3n2)C[C@H](C)O1 [Example 73] | = | 6.18 |
| CC(C)c1cnn2c(NCc3nc4ccccc4[nH]3)nc(N3CCOC[C@H]3C)nc12 [Example 7] | = | 4.99 |
